- EXPERIMENTAL_TARGET: SNAP protein tags (Homo sapiens, UniProt P16455, A127T/A154D/C150Q/C62A/E30R/G131K/G132T/G153L/K125A/K32I/L33F/M134L/N157G/Q115S/Q116H/R128A/R135S/S151G/S152D/S159E)
- Sequence (P16455 1-182 with the stated changes): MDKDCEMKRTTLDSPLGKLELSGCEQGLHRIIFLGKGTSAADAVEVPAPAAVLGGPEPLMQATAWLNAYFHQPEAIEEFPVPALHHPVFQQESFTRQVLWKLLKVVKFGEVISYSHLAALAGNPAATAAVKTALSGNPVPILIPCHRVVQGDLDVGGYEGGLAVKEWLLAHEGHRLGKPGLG
- EXPERIMENTAL_DETAILS: Fluorescence activation of probe after incubation with corresponding protein tag (SNAP)
- Assay type: biochemical
- TEST_SETTINGS: probe 5 μM, protein tag 10 μM, 37° C., 1 hr
PROPERTY_LABEL: Quantum yield of probe bound to protein tag
Answers are plain numbers.

Sample answers from the record:
[[record]]
compound = "CN1C(=O)/C(=C\\c2cc3ccc(N(C)CCOC(=O)NCc4ccc(COc5nc(N)nc6[nH]cnc56)cc4)cc3s2)N=C1c1ccccc1 [probe 42]"
observed = 0.38

[[record]]
compound = "CN(CCOC(=O)NCc1ccc(COc2nc(N)nc3[nH]cnc23)cc1)c1ccc(-c2ccc(/C=C(\\C#N)C(=O)O)s2)s1 [probe 120]"
observed = 0.42

[[record]]
compound = "CC1=CC(C)(C)N(CCOC(=O)NCc2ccc(COc3nc(N)nc4[nH]cnc34)cc2)c2ccc(/C=C(\\C#N)C(=O)O)cc21 [probe 105]"
observed = 0.41

[[record]]
compound = "CN(CCOC(=O)NCc1ccc(COc2nc(N)nc3[nH]cnc23)cc1)c1cc2cc3sc(/C=C(\\C#N)C(=O)OC(C)(C)C)cc3cc2s1 [probe 70]"
observed = 0.68

[[record]]
compound = "N#C/C(=C\\c1ccc2c(c1)SCCN2CCOC(=O)NCc1ccc(COc2nc(N)nc3[nH]cnc23)cc1)c1nc2ccccc2s1 [probe 86]"
observed = 0.17

[[record]]
compound = "CC(C)(C)OC(=O)/C(C#N)=C/c1ccc(N(CCO)CCOC(=O)NCc2ccc(COc3nc(N)nc4[nH]cnc34)cc2)cc1 [probe 10]"
observed = 0.39

[[record]]
compound = "CC1=CC(C)(C)N(CCOC(=O)NCc2ccc(COc3nc(N)nc4[nH]cnc34)cc2)c2ccc(/C=C(\\C#N)c3nc4ccccc4s3)cc21 [probe 89]"
observed = 0.32

[[record]]
compound = "CN(CCOC(=O)NCc1ccc(COc2cc(Cl)nc(N)n2)cc1)c1ccc(C2=C(C#N)C(=C(C#N)C#N)OC2(C)C)cc1 [probe 19]"
observed = 0.45


# per-item lookup of Quantum yield of probe bound to protein tag; items listed below
1. CN(CCOC(=O)NCc1ccc(COc2nc(N)nc3[nH]cnc23)cc1)c1ccc2c(c1)sc1cc(C=C(C#N)C#N)sc12 [probe 64]
2. CN1C(=O)/C(=C/c2ccc(N(C)CCOC(=O)NCc3ccc(COc4cc(Cl)nc(N)n4)cc3)cc2)N=C1/C=C/c1ccccc1 [probe 16]
3. CN(CCO)c1ccc(-c2ccc(/C=C(\C#N)C(=O)NCc3ccc(COc4nc(N)nc5[nH]cnc45)cc3)s2)cc1 [Reference Probe 118, reference compound]
4. COCCNC(=O)/C(C#N)=C/c1ccc(-c2ccc(N(C)CCOC(=O)NCc3ccc(COc4nc(N)nc5[nH]cnc45)cc3)cc2)s1 [probe 67]
5. CC1=CC(C)(C)N(CCOC(=O)NCc2ccc(COc3nc(N)nc4[nH]cnc34)cc2)c2ccc(/C=C(\C#N)c3nc4ccccc4o3)cc21 [probe 88]

Solution:
0.48
0.21
0.02
0.36
0.29

# per-item lookup of Quantum yield of probe bound to protein tag; items listed below
1. CC(C)(C)OC(=O)/C(C#N)=C/c1ccc(N(CCOC(=O)NCCCS(=O)(=O)O)CCOC(=O)NCc2ccc(COc3nc(N)nc4[nH]cnc34)cc2)cc1 [probe 11]
2. CN(CCOC(=O)NCc1ccc(COc2nc(N)nc3[nH]cnc23)cc1)c1cc2c(s1)-c1sc(/C=C(/C#N)C(=O)OC(C)(C)C)cc1[Si]2(C)C [probe 74]
3. CN(CCOC(=O)NCc1ccc(COc2nc(N)nc3[nH]cnc23)cc1)c1ccc2cc(/C=C(\C#N)c3nc4ccccc4s3)sc2c1 [probe 32]
4. CN(CCOC(=O)NCc1ccc(COc2nc(N)nc3[nH]cnc23)cc1)c1cc2sc(/C=C(\C#N)C(=O)O)cc2s1 [probe 107]
5. CN(CCOC(=O)NCc1ccc(COc2nc(N)nc3[nH]cnc23)cc1)c1ccc(C#C/C=C(\C#N)C(=O)OC(C)(C)C)cc1 [probe 56]
6. CN(CCOC(=O)NCc1ccc(COc2nc(N)nc3[nH]cnc23)cc1)c1ccc2cc(/C=C(\C#N)C(=O)O)sc2c1 [probe 111]
7. CN(CCOC(=O)NCc1ccc(COc2nc(N)nc3[nH]cnc23)cc1)c1ccc(/C=C(\C#N)c2nc3ccccc3o2)cc1 [probe 2]

Solution:
[0.36, 0.78, 0.46, 0.47, 0.39, 0.49, 0.15]
